Target: hSK2 (Homo sapiens, UniProt Q9H2S1)
Assay: 86Rb+ efflux assay for compound activity towards hSK channels
Conditions: 86Rb+ efflux stimulated with calcium ionophore; drug 0.01 to 30 μM; read-out: hSK2 Inhibitory Activity
Measured endpoint: IC50

>  <Structure smiles>
Cc1cnn(-c2cccc(Nc3ccc(-c4cccc(F)c4)cn3)n2)c1

>  <IC50>
< 100 nM

$$$$
>  <Structure smiles>
COc1ccc(-c2nccs2)nc1Nc1ccc(N2CCCC2)cn1

>  <IC50>
< 100 nM

$$$$

Okay, now this compound:
Exam item: Give IC50; test system hSK2 (Homo sapiens, UniProt Q9H2S1); compound Clc1ccc(Nc2cccc(-c3cnccn3)n2)nc1
Marked response: 100 to 500 nM

* * *

Documented pIC50 across a set of molecules
Biological target: hSK2 (Homo sapiens, UniProt Q9H2S1)
Test: 86Rb+ efflux assay for compound activity towards hSK channels
Settings: 86Rb+ efflux stimulated with calcium ionophore; drug 0.01 to 30 μM; read-out: hSK2 Inhibitory Activity
pIC50: −log10 of the molar value.

Guide cases for pIC50, answers given:
>  <Molecule>
Brc1ccc(Nc2cccc(-n3cccn3)n2)nc1

>  <pIC50>
> 7.00

$$$$
>  <Molecule>
Clc1cnc(-c2cccc(Nc3ccccn3)n2)s1

>  <pIC50>
> 7.00

$$$$
>  <Molecule>
COCCN(C)c1ccc(Nc2cccc(-c3ncc(Cl)s3)n2)nc1

>  <pIC50>
> 7.00

$$$$

Exam item: Look up and report measured pIC50 for this entry: Fc1cccc(Nc2cccc(-c3nccs3)n2)n1
Marked response: 6.00 to 6.30

Exam item: Look up and report measured pIC50 for this entry: c1cncc(-c2ccc(Nc3cccc(-c4cnccn4)n3)nc2)c1
Marked response: > 7.00

Exam item: Look up and report measured pIC50 for this entry: COc1ccc(-c2nccs2)nc1Nc1ccc(N2CCOCC2)cn1
Marked response: > 7.00

Exam item: Look up and report measured pIC50 for this entry: COc1ccc(-c2nccs2)nc1Nc1ccc(N2CCNC(C)C2)cn1 (stereo not shown)
Marked response: 6.30 to 7.00

Exam item: Look up and report measured pIC50 for this entry: CC(C)(C)c1ccc(Nc2cccc(-c3nccs3)n2)nc1
Marked response: 6.30 to 7.00

Exam item: Look up and report measured pIC50 for this entry: CC(C)c1cnc(-c2cccc(Nc3ccccn3)n2)s1
Marked response: > 7.00

Exam item: Look up and report measured pIC50 for this entry: COc1ccc(-c2cnccn2)nc1Nc1ccc(N2CCN(C)CC2)cn1
Marked response: > 7.00

Exam item: Look up and report measured pIC50 for this entry: COc1ccc(-c2ccccn2)nc1Nc1ccc(N2CCCCC2)cn1
Marked response: > 7.00

* * *

Biological target: hSK2 (Homo sapiens, UniProt Q9H2S1)
Experiment: 86Rb+ efflux assay for compound activity towards hSK channels
Conditions: 86Rb+ efflux stimulated with calcium ionophore; drug 0.01 to 30 μM; read-out: hSK2 Inhibitory Activity
pIC50: −log10 of the molar value.
Documented pIC50 across a set of molecules

Guide cases for pIC50, answers given:
>  <Structure smiles>
c1ccc(-c2cc(Nc3cccc(-c4nccs4)n3)[nH]n2)cc1

>  <Measured target>
hSK2 (Homo sapiens, UniProt Q9H2S1)

>  <pIC50>
> 7.00

$$$$
>  <Structure smiles>
COc1ccc(-c2ncc(Cl)s2)nc1Nc1ccc(N2CCCCC2)cn1

>  <Measured target>
hSK2 (Homo sapiens, UniProt Q9H2S1)

>  <pIC50>
6.30 to 7.00

$$$$
>  <Structure smiles>
COc1ccc(Nc2cccc(-n3cc(C)cn3)n2)nc1

>  <Measured target>
hSK2 (Homo sapiens, UniProt Q9H2S1)

>  <pIC50>
> 7.00

$$$$
>  <Structure smiles>
COc1ccc(-c2ccccn2)nc1Nc1ccc(C(C)C)cn1

>  <Measured target>
hSK2 (Homo sapiens, UniProt Q9H2S1)

>  <pIC50>
> 7.00

$$$$

Okay, now this molecule:
Exam item: Look up and report measured pIC50 for this entry: O=C1CCCN1c1ccc(Nc2cccc(-c3ncc(Cl)s3)n2)nc1
Marked response: > 7.00
